assay: Metabolic stability in vitro, rat liver microsomes (calculation of Fmax); assay type: in vitro ADME; conditions: comparison table with comparative examples
measuredAttribute: Rat liver microsomes; Fmax [%] (%)

Look up Rat liver microsomes; Fmax [%]: COc1cc(S(C)(=O)=O)ccc1Nc1nc2ccc(-c3ccc(NC(=O)[C@H](C)c4ccc(F)cc4)cc3)cn2n1
92

Look up Rat liver microsomes; Fmax [%]: C[C@@H](C(=O)Nc1ccc(-c2ccc3nc(Nc4ccc(S(C)(=O)=O)cc4OCC(F)(F)F)nn3c2)cc1)c1ccc(F)cc1
93

Look up Rat liver microsomes; Fmax [%]: COc1ccccc1Nc1nc2ccc(-c3ccc(NC(=O)Cc4ccccc4)cc3)cn2n1 [reference compound]
40

Look up Rat liver microsomes; Fmax [%]: N#Cc1ccccc1Nc1nc2ccc(-c3ccc(NC(=O)Cc4ccc(F)cc4)cc3)cn2n1 [reference compound]
40

1: N#Cc1ccccc1Nc1nc2ccc(-c3ccc(NC(=O)C(F)c4ccccc4)cc3)cn2n1 (stereo not shown) [reference compound]
2: COc1cc(C(=O)N2CCOCC2)ccc1Nc1nc2ccc(-c3ccc(NC(=O)Cc4ccc(F)cc4)cc3)cn2n1 [reference compound]
3: C[C@@H](C(=O)Nc1ccc(-c2ccc3nc(Nc4ccc(C(=O)N5CC(F)C5)cc4OCC(F)(F)F)nn3c2)cc1)c1ccc(F)cc1
Ascending by Rat liver microsomes; Fmax [%], please: list the molecules accordingly. Give me the labels in the order the question wants.
1, 2, 3

* * *

Target: human kinase Mps-1 (Homo sapiens)
Construct: N-terminally GST-tagged human full length recombinant Mps-1 kinase; GST (N); purchased Invitrogen, Karslruhe, Germany PV4071
Sequence (P33981 1-857): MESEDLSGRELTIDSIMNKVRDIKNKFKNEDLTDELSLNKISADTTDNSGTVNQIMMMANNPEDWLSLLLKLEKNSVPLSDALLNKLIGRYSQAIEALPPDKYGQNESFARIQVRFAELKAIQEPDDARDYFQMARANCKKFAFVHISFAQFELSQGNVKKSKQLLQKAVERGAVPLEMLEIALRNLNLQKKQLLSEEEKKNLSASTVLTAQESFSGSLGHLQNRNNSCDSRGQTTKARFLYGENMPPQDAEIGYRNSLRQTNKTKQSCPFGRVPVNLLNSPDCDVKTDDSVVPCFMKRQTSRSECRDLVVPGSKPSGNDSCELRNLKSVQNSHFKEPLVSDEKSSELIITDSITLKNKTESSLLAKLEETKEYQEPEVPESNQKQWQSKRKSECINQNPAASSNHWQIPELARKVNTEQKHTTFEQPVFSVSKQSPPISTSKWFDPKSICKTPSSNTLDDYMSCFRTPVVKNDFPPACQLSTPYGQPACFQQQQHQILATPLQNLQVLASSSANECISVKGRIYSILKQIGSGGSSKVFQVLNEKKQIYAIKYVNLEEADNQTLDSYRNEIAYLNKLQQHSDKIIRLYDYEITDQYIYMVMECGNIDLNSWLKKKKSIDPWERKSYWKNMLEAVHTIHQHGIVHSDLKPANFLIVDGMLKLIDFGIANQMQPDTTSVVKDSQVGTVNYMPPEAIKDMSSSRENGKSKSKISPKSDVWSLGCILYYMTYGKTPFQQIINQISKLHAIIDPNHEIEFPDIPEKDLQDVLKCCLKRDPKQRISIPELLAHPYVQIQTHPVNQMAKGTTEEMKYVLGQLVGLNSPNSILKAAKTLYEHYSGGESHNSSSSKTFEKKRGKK
Assay: Mps-1 kinase assay (TR-FRET) with 10 μM ATP
Format: biochemical
Conditions: Mps-1 Inhibition, IC50 in M (Assay with 10 μM ATP)
measuredAttribute: IC50

Look up IC50: C[C@@H](C(=O)Nc1ccc(-c2ccc3nc(Nc4ccc(C(=O)N5CC(F)C5)cc4OCC(F)(F)F)nn3c2)cc1)c1ccc(F)cc1
< 1 nM

Look up IC50: COc1cc(C(=O)N2CCC2)ccc1Nc1nc2ccc(-c3ccc(NC(=O)[C@H](C)c4ccc(F)cc4)cc3)cn2n1
< 1 nM

Turning to the following compound.
Look up IC50: C[C@@H](C(=O)Nc1ccc(-c2ccc3nc(Nc4ccc(S(C)(=O)=O)cc4OCC(F)(F)F)nn3c2)cc1)c1ccc(F)cc1
< 1 nM
